System: purple nutsedge
ASSAY: Test B pre/postemergence purple nutsedge
Format: in vivo, Cyperus rotundus
CONDITIONS USED: Preemergence, Rate 500 g/ha; scale 0 (no effect) to 10 (complete control)
MEASUREMENT TYPE: Nutsedge plant response rating
# answer = number (no unit)

Consider "Cc1ccccc1Cn1c(=O)on(C(=O)N(c2ccc(F)cc2F)C(C)C)c1=O" . Its measured Nutsedge plant response rating is 0

Consider "Cc1nn(C)c(Cl)c1-n1c(=O)on(C(=O)N(c2ccc(F)cc2F)C(C)C)c1=O" . Its measured Nutsedge plant response rating is 0

Consider "CCN(CC)C(=O)n1oc(=O)n(Cc2cccs2)c1=O" . Its measured Nutsedge plant response rating is 6

Continuing:
Consider "Cc1c(Cl)cccc1-n1c(=O)on(C(=O)N(c2ccc(F)cc2)C(C)C)c1=O" . Its measured Nutsedge plant response rating is 0

Consider "Cc1cccc(C)c1-n1c(=O)on(C(=O)N(c2ccc(F)cc2)C(C)C)c1=O" . Its measured Nutsedge plant response rating is 0

* * *

Recorded Soybean plant response rating values for a group of compounds are listed next.
Test system: soybean
ASSAY: Test B pre/postemergence soybean
Type: in vivo, Glycine max
CONDITIONS USED: Rate 62 g/ha, Postemergence; scale of 0 to 10 where 0 is no effect and 10 is complete control
# answer = number (no unit)

Consider CC1CC1n1c(=O)on(C(=O)N(c2ccc(Cl)cc2)C(C)C)c1=O (centres unmarked) . Its measured Soybean plant response rating is 0

Consider "Cc1ccccc1-n1c(=O)on(C(=O)N(c2ccc(Cl)cc2Cl)C(C)C)c1=O" . Its measured Soybean plant response rating is 2

Consider CC(C)N(C(=O)n1oc(=O)n(N2C(C)CCCC2C)c1=O)c1ccc(F)cc1 (centres unmarked) . Its measured Soybean plant response rating is 1

Consider "CC(C)N(C(=O)n1oc(=O)n(-c2ccnn2C)c1=O)c1ccc(F)cc1" . Its measured Soybean plant response rating is 0

Consider "CC(C)c1noc(C(C)C)c1-n1c(=O)on(C(=O)N(c2ccc(F)cc2)C(C)C)c1=O" . Its measured Soybean plant response rating is 2

Continuing:
Consider "CC(C)N(C(=O)n1oc(=O)n(N(C)C)c1=O)c1ccccc1" . Its measured Soybean plant response rating is 2

Consider "CC(C)N(C(=O)n1oc(=O)n(CCl)c1=O)c1ccc(F)cc1" . Its measured Soybean plant response rating is 0

Consider "COc1cc(C)cc(C)c1-n1c(=O)on(C(=O)N(c2ccc(F)cc2F)C(C)C)c1=O" . Its measured Soybean plant response rating is 3

* * *

System: surinam grass
ASSAY: Test B pre/postemergence surinam grass
Assay type: in vivo, Brachiaria decumbens
CONDITIONS USED: Preemergence, Rate 125 g/ha; scale of 0 to 10 where 0 is no effect and 10 is complete control
MEASUREMENT TYPE: Plant response rating, B. signalgrass
# answer = number (no unit)

Solved entries (count: 2):
Plant response rating, B. signalgrass for surinam grass with input CC(C)N(C(=O)n1oc(=O)n(C(C)C=O)c1=O)c1ccccc1 (stereo not drawn) equals 0

Plant response rating, B. signalgrass for surinam grass with input COCC(OC)n1c(=O)on(C(=O)N(c2ccccc2)C(C)C)c1=O (stereo not drawn) equals 9

# next molecule below
Plant response rating, B. signalgrass for surinam grass with input COC(CCl)n1c(=O)on(C(=O)N(c2ccc(Cl)cc2)C(C)C)c1=O (stereo not drawn) equals 3

* * *

Tested on: morningglory
ASSAY: Test B pre/postemergence morningglory
Format: in vivo, Ipomoea hederacea
CONDITIONS USED: Preemergence, Rate 500 g/ha; scale 0 to 10, 0 is no effect, 10 is complete control
MEASUREMENT TYPE: Morningglory plant response rating
# answer = number (no unit)

Morningglory plant response rating for morningglory with input "CC(C)N(C(=O)n1oc(=O)n(CC(=O)N(C)C)c1=O)c1ccc(Cl)cc1" equals 0

Continuing:
Morningglory plant response rating for morningglory with input "CC(C)N(C(=O)n1oc(=O)n(CC2=NOCC2)c1=O)c1ccc(F)cc1" equals 0

Morningglory plant response rating for morningglory with input "CC(=O)NCn1c(=O)on(C(=O)N(c2ccc(F)cc2)C(C)C)c1=O" equals 0

Morningglory plant response rating for morningglory with input "CC(C)N(C(=O)n1oc(=O)n(CCBr)c1=O)c1ccccc1" equals 0

Morningglory plant response rating for morningglory with input CC(C)N(C(=O)n1oc(=O)n(C(C)C(=O)N(C)C)c1=O)c1ccccc1 (stereo not shown) equals 4

Morningglory plant response rating for morningglory with input "CC(C)N(C(=O)n1oc(=O)n(CCNC(=O)CCl)c1=O)c1ccccc1" equals 0

Morningglory plant response rating for morningglory with input "CC(C)N(C(=O)n1oc(=O)n(CCCl)c1=O)c1ccccc1" equals 1

* * *

Recorded Plant response rating (0 to 10; 0 is no effect, 10 is complete control), Morningglory values for a group of compounds are listed next.
Tested on: morningglory
ASSAY: Test B pre/postemergence morningglory
Format: in vivo, Ipomoea hederacea
CONDITIONS USED: Rate 250 g/ha; Postemergence
# answer = number (no unit)

Solved entries (count: 2):
Consider "CC(=O)Cn1c(=O)on(C(=O)N(c2ccc(F)cc2)C(C)C)c1=O" . Its measured Plant response rating (0 to 10; 0 is no effect, 10 is complete control), Morningglory is 0

Consider "CC(C)N(C(=O)n1oc(=O)n([C@H](C)c2ccccc2)c1=O)c1ccc(F)cc1" . Its measured Plant response rating (0 to 10; 0 is no effect, 10 is complete control), Morningglory is 5

Continuing:
Consider "C=C(C)CCn1c(=O)on(C(=O)N(c2ccc(F)cc2)C(C)C)c1=O" . Its measured Plant response rating (0 to 10; 0 is no effect, 10 is complete control), Morningglory is 4

Consider "CCN(CC)C(=O)Cn1c(=O)on(C(=O)N(c2ccc(F)cc2)C(C)C)c1=O" . Its measured Plant response rating (0 to 10; 0 is no effect, 10 is complete control), Morningglory is 10

Consider "C#CCn1c(=O)on(C(=O)N(c2ccc(F)cc2)C(C)C)c1=O" . Its measured Plant response rating (0 to 10; 0 is no effect, 10 is complete control), Morningglory is 4

* * *

Test system: crabgrass
ASSAY: Test B pre/postemergence crabgrass
Assay type: in vivo, Digitaria sanguinalis
CONDITIONS USED: Preemergence, Rate 125 g/ha; scale 0 to 10 (0 no effect, 10 complete control)
Field: label. Allowed values: Y (Plant response rating, Crabgrass < 4) or N (Plant response rating, Crabgrass >= 4).

Lab note: Plant response rating, Crabgrass threshold 4. Does this compound come in strictly under it? C=CCn1c(=O)on(C(=O)N(c2ccc(Cl)cc2)C(C)C)c1=O [Compound 105]
N

Lab note: Plant response rating, Crabgrass threshold 4. Does this compound come in strictly under it? CCCn1c(=O)on(C(=O)N(c2ccc(F)cc2)C(C)C)c1=O [Compound 91]
N

Lab note: Plant response rating, Crabgrass threshold 4. Does this compound come in strictly under it? CC(C)N(C(=O)n1oc(=O)n(C(C)C)c1=O)c1ccc(Cl)cc1 [Compound 114]
N

Continuing:
Lab note: Plant response rating, Crabgrass threshold 4. Does this compound come in strictly under it? Cc1ccccc1-n1c(=O)on(C(=O)N(c2ccc(C(F)(F)F)cc2)C(C)C)c1=O [Compound 39]
Y

* * *

Test system: rape
ASSAY: Test B pre/postemergence rape
Type: in vivo, Brassica napus
CONDITIONS USED: Preemergence, Rate 500 g/ha; scale of 0 to 10 where 0 is no effect and 10 is complete control
Recorded Plant response rating, Rape values for a group of compounds are listed next.
# answer = number (no unit)

Solved entries (count: 6):
Consider "CC(C)N(C(=O)n1oc(=O)n(CNC(=O)c2ccccc2)c1=O)c1ccccc1" . Its measured Plant response rating, Rape is 0

Consider CC(C)N(C(=O)n1oc(=O)n(CC2CCCCO2)c1=O)c1ccccc1 (stereo not shown) . Its measured Plant response rating, Rape is 10

Consider "CC(C)N(C(=O)n1oc(=O)n(CSC#N)c1=O)c1ccc(F)cc1" . Its measured Plant response rating, Rape is 0

Consider "C#CCn1c(=O)on(C(=O)N(c2ccc(F)cc2)C(C)C)c1=O" . Its measured Plant response rating, Rape is 8

Consider "CC(C)N(C(=O)n1oc(=O)n(C(C)C)c1=O)c1ccncc1" . Its measured Plant response rating, Rape is 4

Consider "CCOP(=O)(Cn1c(=O)on(C(=O)N(c2ccc(Cl)cc2)C(C)C)c1=O)OCC" . Its measured Plant response rating, Rape is 0

# next compound below
Consider CCC(C)n1c(=O)on(C(=O)N(c2ccccc2)C(C)C)c1=O (stereo not shown) [Compound 610] . Its measured Plant response rating, Rape is 10

* * *

Tested on: blackgrass
ASSAY: Test B pre/postemergence blackgrass
Assay type: in vivo, Alopecurus myosuroides
CONDITIONS USED: Rate 62 g/ha, Postemergence; scale 0 to 10 (0 no effect, 10 complete control)
MEASUREMENT TYPE: Blackgrass plant response rating
# answer = number (no unit)

Solved entries (count: 5):
Consider "COC(Cn1c(=O)on(C(=O)N(c2ccc(F)cc2)C(C)C)c1=O)OC" . Its measured Blackgrass plant response rating is 8

Consider "Cc1c(-n2c(=O)on(C(=O)N(c3ccc(Cl)cc3)C(C)C)c2=O)ccc2ccccc12" . Its measured Blackgrass plant response rating is 0

Consider "CC(C)N(C(=O)n1oc(=O)n(CCCl)c1=O)c1ccccc1" . Its measured Blackgrass plant response rating is 7

Consider "CC(C)N(C(=O)n1oc(=O)n(-c2ccc3ccccc3c2)c1=O)c1ccc(Cl)cc1" . Its measured Blackgrass plant response rating is 0

Consider "CCN(C(=O)n1oc(=O)n(C2CCCCC2)c1=O)C1CCCCC1" . Its measured Blackgrass plant response rating is 0

Continuing:
Consider "CC(C)N(C(=O)n1oc(=O)n(C2CCOCC2)c1=O)c1ccc(F)cc1" . Its measured Blackgrass plant response rating is 5

Consider "Cc1ccc(N(C(=O)n2oc(=O)n(-c3ccc4ccccc4c3)c2=O)C(C)C)cc1" . Its measured Blackgrass plant response rating is 0
